experiment: A549 lung cancer cell viability effects, profiling panel, resazurin fluorescence, 24 h, PK04 Diversity Set (AID 1171); conditions: higher = more signal, called active from +8 up or from −8 down; note: test concentration not given here
Decision: z-score >= -0.7 yields Yes, all other cases yield No.

Please check the record Cc1ccc([C@H]2C(C(=O)O)=C[C@@H](C(C)(C)C)N2S(=O)(=O)c2ccc(C)cc2)cc1 and state if its z-score is at or above -0.7.
Yes

Given the entry Cc1ccc(C(C)CC(O)C2C=CC3C(=O)N(c4ccccc4)C(=O)C3N2Nc2ccc(C#N)cc2)o1 (stereo not drawn) , answer whether its z-score meets or surpasses -0.7.
No

For this molecule, is measured z-score -0.7 or higher? CC(C)C[C@@H]1NC(=O)[C@@]23C(=O)N[C@@H](Cc4ccccc4)C2[C@H](C)[C@@]2(C)O[C@H]2C3/C=C/C/C=C\CNC(=O)[C@@H](C)NC1=O (stereo partly drawn)
Yes

Hello, I need to know if CC(C)c1ccc(NN2C(C(O)Cc3ccccc3)C=CC3C(=O)N(c4ccccc4)C(=O)C32)cc1 (stereo not drawn) has measured z-score not below -0.7. Thanks!
Yes

====

target: Neurogenic locus notch homolog protein 3 (Homo sapiens) (UniProt Q9UM47); assay: NOTCH3 binders on small-molecule microarray, primary screen, biochemical, 635/667 nm fluorescence (AID 1096); conditions: NOTCH3 binding, 635 nm fluorescence, higher = more signal
Sequence (Q9UM47 whole entry, looked up): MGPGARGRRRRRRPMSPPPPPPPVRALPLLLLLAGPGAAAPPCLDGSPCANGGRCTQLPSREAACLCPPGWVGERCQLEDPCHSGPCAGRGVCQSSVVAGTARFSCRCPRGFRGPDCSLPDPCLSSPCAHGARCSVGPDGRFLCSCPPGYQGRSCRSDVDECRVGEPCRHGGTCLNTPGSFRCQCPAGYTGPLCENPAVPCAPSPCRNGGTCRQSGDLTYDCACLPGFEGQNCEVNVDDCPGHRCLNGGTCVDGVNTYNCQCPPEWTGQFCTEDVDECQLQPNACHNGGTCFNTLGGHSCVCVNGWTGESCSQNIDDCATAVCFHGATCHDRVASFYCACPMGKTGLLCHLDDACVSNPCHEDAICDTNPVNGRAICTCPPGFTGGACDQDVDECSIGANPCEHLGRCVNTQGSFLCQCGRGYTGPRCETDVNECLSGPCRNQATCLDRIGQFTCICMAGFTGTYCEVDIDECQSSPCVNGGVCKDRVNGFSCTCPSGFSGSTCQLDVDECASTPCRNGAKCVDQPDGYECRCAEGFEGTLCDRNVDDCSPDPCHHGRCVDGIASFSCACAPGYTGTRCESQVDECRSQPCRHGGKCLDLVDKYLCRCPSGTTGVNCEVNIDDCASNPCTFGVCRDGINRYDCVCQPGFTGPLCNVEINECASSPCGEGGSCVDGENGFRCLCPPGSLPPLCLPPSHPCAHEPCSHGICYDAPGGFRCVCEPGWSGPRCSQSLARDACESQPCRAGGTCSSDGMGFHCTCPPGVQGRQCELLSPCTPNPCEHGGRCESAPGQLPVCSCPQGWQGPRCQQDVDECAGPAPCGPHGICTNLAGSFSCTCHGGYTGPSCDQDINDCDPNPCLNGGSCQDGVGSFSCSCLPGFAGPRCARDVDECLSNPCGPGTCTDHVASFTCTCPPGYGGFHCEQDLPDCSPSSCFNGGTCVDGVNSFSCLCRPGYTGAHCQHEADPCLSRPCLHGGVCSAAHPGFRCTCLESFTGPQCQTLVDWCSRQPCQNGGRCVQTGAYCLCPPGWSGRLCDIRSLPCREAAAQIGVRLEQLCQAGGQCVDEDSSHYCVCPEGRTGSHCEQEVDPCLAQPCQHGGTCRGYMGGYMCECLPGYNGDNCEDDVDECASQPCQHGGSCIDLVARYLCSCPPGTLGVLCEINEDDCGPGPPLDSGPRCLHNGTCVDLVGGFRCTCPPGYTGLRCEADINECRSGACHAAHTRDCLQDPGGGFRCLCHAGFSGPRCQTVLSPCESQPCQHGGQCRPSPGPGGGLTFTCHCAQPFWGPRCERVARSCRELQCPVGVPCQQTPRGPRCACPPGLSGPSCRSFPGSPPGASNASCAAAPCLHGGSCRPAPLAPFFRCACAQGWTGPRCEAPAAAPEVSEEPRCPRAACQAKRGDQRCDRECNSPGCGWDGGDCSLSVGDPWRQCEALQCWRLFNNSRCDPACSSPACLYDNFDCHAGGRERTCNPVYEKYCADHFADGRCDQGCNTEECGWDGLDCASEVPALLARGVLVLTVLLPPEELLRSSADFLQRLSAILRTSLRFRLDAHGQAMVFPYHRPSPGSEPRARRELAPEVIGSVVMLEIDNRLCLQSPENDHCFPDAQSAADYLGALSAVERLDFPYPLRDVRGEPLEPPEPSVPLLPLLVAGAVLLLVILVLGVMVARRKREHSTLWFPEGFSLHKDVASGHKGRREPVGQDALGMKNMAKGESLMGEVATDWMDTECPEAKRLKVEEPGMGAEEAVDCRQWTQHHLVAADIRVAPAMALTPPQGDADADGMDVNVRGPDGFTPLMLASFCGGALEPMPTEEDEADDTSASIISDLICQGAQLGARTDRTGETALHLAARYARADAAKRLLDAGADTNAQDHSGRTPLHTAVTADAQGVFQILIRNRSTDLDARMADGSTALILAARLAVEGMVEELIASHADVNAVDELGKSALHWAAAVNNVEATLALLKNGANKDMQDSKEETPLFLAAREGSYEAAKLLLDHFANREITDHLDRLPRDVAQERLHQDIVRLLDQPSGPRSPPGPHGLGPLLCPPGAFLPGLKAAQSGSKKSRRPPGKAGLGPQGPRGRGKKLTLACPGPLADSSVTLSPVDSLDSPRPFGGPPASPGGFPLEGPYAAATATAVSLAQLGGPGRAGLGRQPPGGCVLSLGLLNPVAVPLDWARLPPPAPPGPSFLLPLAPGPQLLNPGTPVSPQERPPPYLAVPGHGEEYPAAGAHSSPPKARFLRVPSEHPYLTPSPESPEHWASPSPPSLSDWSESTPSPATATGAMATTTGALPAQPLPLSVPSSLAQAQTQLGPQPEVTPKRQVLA
assay.metric: composite z-score
Give the figure only, with no unit attached.

> print(dat)
                            molecule.smiles                               test.target       assay.metric  endpoint.value
1                      CCOC(=O)C=Cc1ccccc1O  Neurogenic locus notch homolog protein 3 (Homo sapiens) (UniProt Q9UM47)  composite z-score           0.947
2  CCCC=C(CCC)[C@@H](NC(=O)CCc1ccccc1)c1ccc(C(F)(F)F)cc1  Neurogenic locus notch homolog protein 3 (Homo sapiens) (UniProt Q9UM47)  composite z-score            1.12
3  CCOC(=O)C[C@H]1[C@H](OC(=O)c2ccc(-c3ccccc3)cc2)[C@@H](NC(=O)CC(C)C)c2cc(OCCCO)ccc2N1C(=O)c1ccccc1  Neurogenic locus notch homolog protein 3 (Homo sapiens) (UniProt Q9UM47)  composite z-score           0.952
4  C=C/C=C/[C@@H]1C(=C)CN([C@@H](Cc2ccccc2)C(=O)OC)[C@H]1[C@@H](O)Cc1ccccc1  Neurogenic locus notch homolog protein 3 (Homo sapiens) (UniProt Q9UM47)  composite z-score           0.731
5  CN(C)C(=O)[C@@]1(Cc2ccccc2N=[N+]=[N-])N=C(c2ccc(OCCCO)cc2)O[C@H]1c1ccccc1  Neurogenic locus notch homolog protein 3 (Homo sapiens) (UniProt Q9UM47)  composite z-score            1.12
6  CC(C)[Si]1(C(C)C)OCc2cc(-c3ccc(-c4ccc(Cl)c(Cl)c4)o3)nc(CCc3ccccc3)c21  Neurogenic locus notch homolog protein 3 (Homo sapiens) (UniProt Q9UM47)  composite z-score          -0.428
7  C=C(CCCC)C(=O)CC[C@H](OC(=O)c1ccccc1-c1ccccc1C(=O)O)c1ccccc1OCCO  Neurogenic locus notch homolog protein 3 (Homo sapiens) (UniProt Q9UM47)  composite z-score          -0.025

Would you kindly look at the next entry?
Using the record for NCCCCCNC(=O)[C@@H]1C[C@@H]2C(=O)N3CCC[C@H]3C(=O)N2[C@@H]1c1ccc(O)cc1 , state its measured composite z-score.
0.391
